Tested on: A431
assay.comment: filipin (cholesterol) integrated intensity within LBPA endosomes, Z-score; higher = more cholesterol in LBPA endosomes
run.conditions: compound concentration in added solution (µM; 5 µl added to 20 µl cells): 10; 18 h
Structures can show the parent of a compound that is named as a salt.
property: filipin (z-score)
Reply with just the number.

{"molecule": "C#C[C@]1(O)CC[C@H]2[C@@H]3CCC4=CCCC[C@@H]4[C@H]3CC[C@@]21C", "filipin (z-score)": -0.563}
{"molecule": "COc1ccc(-c2ccc(=N)n(CCCC(=O)O)n2)cc1 [Gabazine bromide]", "filipin (z-score)": -0.574}
{"molecule": "COc1ccc(Cl)cc1C(=O)NCCc1ccc(S(=O)(=O)NC(=O)NC2CCCCC2)cc1 [Glibenclamide]", "filipin (z-score)": -0.559}
{"molecule": "COc1ccc2cc(CCC(C)=O)ccc2c1", "filipin (z-score)": -0.495}

API: the following record is the query input.
Input line: So what does the record say about filipin (z-score) for Nc1nc(=O)c2c([nH]1)NC[C@@H](CNc1ccc(C(=O)N[C@@H](CCC(=O)O)C(=O)O)cc1)N2C=O [Folinic acid calcium salt] ?
Output line: -0.451

====

Tested on: A431
assay.comment: whole-cell filipin (free cholesterol) integrated intensity, Z-score; higher = more cholesterol staining
run.conditions: compound concentration in added solution (µM; 5 µl added to 20 µl cells): 10; 18 h
Where a name gives a salt, the structure may show the parent alone.
Label rule, in plain words: whole-cell filipin (z-score) of -0.5 and up is condition met, under -0.5 is condition not met.

A selection of reference data follows.
{"molecule": "CC(=O)N(CC(O)CO)c1c(I)c(C(=O)NCC(O)CO)c(I)c(C(=O)NCC(O)CO)c1I (stereo not drawn) [Iohexol]", "group.label": "condition not met"}
{"molecule": "CC(=O)N[C@@H](CC(C)C)C(=O)O", "group.label": "condition met"}
{"molecule": "CCC[C@@H]1C[C@@H](C(=O)N[C@@H]([C@H]2O[C@H](SC)[C@H](O)[C@@H](O)[C@H]2O)[C@@H](C)O)N(C)C1 [Lincomycin hydrochloride]", "group.label": "condition not met"}
{"molecule": "CC(=O)N[C@@H](CS)C(=O)O", "group.label": "condition met"}
{"molecule": "CN1[C@@H]2CC[C@H]1C[C@@H](OC(=O)C(O)c1ccccc1)C2 (mixture of isomers) [Homatropine hydrobromide (R,S)]", "group.label": "condition not met"}
{"molecule": "O=C(Cn1ccnc1[N+](=O)[O-])NCCO", "group.label": "condition met"}

// switching to the query molecule
Input line: Threshold query (whole-cell filipin (z-score) >= -0.5) on `CCCc1nn(C)c2c(=O)[nH]c(-c3cc(S(=O)(=O)N4CCN(C)CC4)ccc3OCC)nc12`
Output line: condition met

====

Test system: A431
assay.comment: LBPA endosome anti-LBPA integrated intensity (sum per cell), Z-score; higher = more LBPA staining
run.conditions: compound concentration in added solution (µM; 5 µl added to 20 µl cells): 10; 18 h
Where a name gives a salt, the structure may show the parent alone.
Entries and their LBPA endosome anti-LBPA integrated intensity (z-score) values follow.
Reply with just the number.

Example cases with answers are listed next.
{"molecule": "C[C@@H]1C[C@H]2[C@@H]3C[C@H](F)C4=CC(=O)C=C[C@]4(C)[C@@]3(Cl)[C@@H](O)C[C@]2(C)[C@H]1C(=O)COC(=O)C(C)(C)C [Clocortolone pivalate]", "val": -0.276}
{"molecule": "N[C@@H](Cc1cc(I)c(Oc2ccc(O)c(I)c2)c(I)c1)C(=O)O [Liothyronine]", "val": -0.519}
{"molecule": "Cn1nnnc1SCC1=C(C(=O)O)N2C(=O)[C@@H](NC(=O)[C@H](O)c3ccccc3)[C@H]2SC1 [Cefamandole sodium salt]", "val": -0.486}
{"molecule": "CN[C@@H]1[C@H](O[C@H]2[C@H](O[C@H]3[C@H](O)[C@@H](O)[C@H](N=C(N)N)[C@@H](O)[C@@H]3N=C(N)N)O[C@@H](C)[C@]2(O)C=O)O[C@@H](CO)[C@H](O)[C@H]1O [Streptomycin sulfate]", "val": -0.673}
{"molecule": "N#Cc1ccc(C(c2ccc(C#N)cc2)n2cncn2)cc1 [Letrozole]", "val": -0.371}

Input line: So what does the record say about LBPA endosome anti-LBPA integrated intensity (z-score) for CCCCCCCN(CC)CCCC(O)c1ccc(NS(C)(=O)=O)cc1 (stereo not given) [Ibutilide fumarate] ?
Output line: 0.46

Input line: So what does the record say about LBPA endosome anti-LBPA integrated intensity (z-score) for NC[C@@H]1O[C@H](O[C@H]2[C@@H](O)[C@H](O[C@@H]3[C@@H](O)[C@H](N)C[C@H](N)[C@H]3O[C@H]3O[C@H](CO)[C@@H](O)[C@H](O)[C@H]3N)O[C@@H]2CO)[C@H](N)[C@@H](O)[C@@H]1O [Paromomycin sulfate] ?
Output line: -0.396

Input line: So what does the record say about LBPA endosome anti-LBPA integrated intensity (z-score) for CN(Cc1cnc2nc(N)nc(N)c2n1)c1ccc(C(=O)N[C@@H](CCC(=O)O)C(=O)O)cc1 (racemic) [Amethopterin (R,S)] ?
Output line: -0.376

Input line: So what does the record say about LBPA endosome anti-LBPA integrated intensity (z-score) for CC(O)(P(=O)(O)O)P(=O)(O)O [Etidronic acid, disodium salt] ?
Output line: -0.428

Input line: So what does the record say about LBPA endosome anti-LBPA integrated intensity (z-score) for COc1ccccc1OCC(O)COC(N)=O (stereo not given) [Methocarbamol] ?
Output line: -0.567

====

Entries and their filipin (z-score) values follow.
System: A431
assay.comment: filipin (cholesterol) integrated intensity within LBPA endosomes, Z-score; higher = more cholesterol in LBPA endosomes
run.conditions: compound concentration in added solution (µM; 5 µl added to 20 µl cells): 10; 18 h
Structures can show the parent of a compound that is named as a salt.

{"compound": "c1ccc2[nH]c(-c3cscn3)nc2c1", "filipin (z-score)": -0.54}
{"compound": "C[C@@H]1[C@H](O)[C@@H](C)/C=C/C=C/C=C/C=C/C=C/C=C/C=C/[C@H](O[C@@H]2O[C@H](C)[C@@H](O)[C@H](N)[C@@H]2O)C[C@@H]2O[C@](O)(C[C@@H](O)C[C@@H](O)[C@H](O)CC[C@@H](O)C[C@@H](O)CC(=O)O[C@H]1C)C[C@H](O)[C@H]2C(=O)O", "filipin (z-score)": 0.0841}
{"compound": "Cc1c(N(C)C)c(=O)n(-c2ccccc2)n1C", "filipin (z-score)": -0.495}
{"compound": "Cc1c(N)c(=O)n(-c2ccccc2)n1C", "filipin (z-score)": -0.379}
{"compound": "O=C(N/N=C/c1ccc([N+](=O)[O-])o1)c1ccc(O)cc1 [Nifuroxazide]", "filipin (z-score)": -0.646}
{"compound": "N=C(N)NCC1COC2(CCCCC2)O1 (centres undefined) [Guanadrel sulfate]", "filipin (z-score)": -0.413}
{"compound": "CCCCOc1cc(C(=O)OCCN(CC)CC)ccc1N [Benoxinate hydrochloride]", "filipin (z-score)": 0.826}
{"compound": "NCCC[C@H](N)CC(=O)N[C@H]1CNC(=O)[C@H]([C@H]2C[C@H](O)NC(N)=N2)NC(=O)/C(=C/NC(N)=O)NC(=O)[C@H](CO)NC(=O)[C@H](CO)NC1=O [Viomycin sulfate]", "filipin (z-score)": -0.563}

Input line: State its filipin (z-score) on A431: CN[C@@H]1[C@H](O[C@H]2[C@H](O[C@H]3[C@H](O)[C@@H](O)[C@H](N=C(N)N)[C@@H](O)[C@@H]3N=C(N)N)O[C@@H](C)[C@]2(O)C=O)O[C@@H](CO)[C@H](O)[C@H]1O [Streptomycin sulfate]
Output line: -0.577

Input line: State its filipin (z-score) on A431: CCC1NC(=O)c2cc(S(N)(=O)=O)c(Cl)cc2N1 (centres undefined)
Output line: -0.404

Input line: State its filipin (z-score) on A431: CCC[C@@H]1C[C@@H](C(=O)N[C@@H]([C@H]2O[C@H](SC)[C@H](O)[C@@H](O)[C@H]2O)[C@H](C)Cl)N(C)C1 [Clindamycin hydrochloride]
Output line: -0.567

Input line: State its filipin (z-score) on A431: CCN(CC)CCOC(=O)C(c1ccccc1)C1CCCCC1 (centres undefined) [Drofenine hydrochloride]
Output line: 1.02

Input line: State its filipin (z-score) on A431: Cc1onc(-c2c(F)cccc2Cl)c1C(=O)N[C@@H]1C(=O)N2[C@@H]1SC(C)(C)[C@@H]2C(=O)O [Flucloxacillin sodium]
Output line: -0.348

Input line: State its filipin (z-score) on A431: COc1cc2nc(N(C)CCCNC(=O)C3CCCO3)nc(N)c2cc1OC (centres undefined) [Alfuzosin hydrochloride]
Output line: 0.00526

All figures here come from the supplement of paper PMC6607015.
